Tested on: co-cultures of dorsal root ganglion (DRG) neurons and oligodendrocytes
testDescription: Myelination in co-cultures of DRG neurons and oligodendrocytes
Type: cell-based, rat
setupConditions: 4-week-old treated co-cultures, anti-MBP antibody
No end group written: not given here. *: point of attachment. Biotin = O=C1N[C@H]2[C@H](CS[C@H]2CCCCC(=O)*)N1
parameterMeasured: expression of MBP (western blot)

substance="Biotin-GSGCLSPEKVC (cysteine pairing not given here)" parametermeasured="expression of MBP (western blot)" observedmeasurement="no increase in MBP"
substance="Ac-CLSPEKVC (also: cyclic, type not given here)" parametermeasured="expression of MBP (western blot)" observedmeasurement="no increase in MBP"
substance="Biotin-GSGCKHSPLRC (cysteine pairing not given here)" parametermeasured="expression of MBP (western blot)" observedmeasurement="no increase in MBP"
